molecular target: 5-HT1A receptor (Homo sapiens (Human), UniProt P08908); assay: FLIPR Ca^2+ flux agonist assay at 5-HT1A; format: cell-based; conditions: CHO cells
Test Readout: 5-HT1A % Act @ Max Dose (%)
Just the number please, in %, no unit attached.

Reference set, count: 5
compound=CCN(CC)C(=O)[C@@H]1C=C2c3cccc4[nH]cc(c34)C[C@H]2N(Cc2ccccc2OC)C1 test_readout="5-HT1A % Act @ Max Dose" value_units=% observed_result=52.96
compound=CC[C@@H](C)NC(=O)[C@@H]1C=C2c3cccc4[nH]cc(c34)C[C@H]2N(C)C1 test_readout="5-HT1A % Act @ Max Dose" value_units=% observed_result=90.25
compound=C=CCN1C[C@@H](C(=O)N[C@H](C)CC)C=C2c3cccc4[nH]cc(c34)C[C@H]21 test_readout="5-HT1A % Act @ Max Dose" value_units=% observed_result=90.34
compound=CCN(CC)C(=O)[C@@H]1C=C2c3cccc4[nH]cc(c34)C[C@H]2N(CCc2ccccc2OC)C1 test_readout="5-HT1A % Act @ Max Dose" value_units=% observed_result=57.91
compound=CCC[C@@H](C)NC(=O)[C@@H]1C=C2c3cccc4[nH]cc(c34)C[C@H]2N(C)C1 test_readout="5-HT1A % Act @ Max Dose" value_units=% observed_result=113.04

For record CCN(CC)C(=O)[C@@H]1C=C2c3cccc4[nH]cc(c34)C[C@H]2N(C)C1 [LSD, lysergic acid diethylamide, reference compound] the listed 5-HT1A % Act @ Max Dose is 91.39

For record `CCN(CC)C(=O)[C@@H]1C=C2c3cccc4[nH]cc(c34)C[C@H]2N(CCCF)C1` the listed 5-HT1A % Act @ Max Dose is 92.42

For record `CCN(CC)C(=O)[C@@H]1C=C2c3cccc4[nH]cc(c34)C[C@H]2N(Cc2ccc(OC)cc2)C1` the listed 5-HT1A % Act @ Max Dose is −0.65
